Where do these numbers come from? They come from patent US10829478B2.

tested-on: human ADAMTS-5 (Homo sapiens (Human))
Sequence (Q9UNA0 262-930): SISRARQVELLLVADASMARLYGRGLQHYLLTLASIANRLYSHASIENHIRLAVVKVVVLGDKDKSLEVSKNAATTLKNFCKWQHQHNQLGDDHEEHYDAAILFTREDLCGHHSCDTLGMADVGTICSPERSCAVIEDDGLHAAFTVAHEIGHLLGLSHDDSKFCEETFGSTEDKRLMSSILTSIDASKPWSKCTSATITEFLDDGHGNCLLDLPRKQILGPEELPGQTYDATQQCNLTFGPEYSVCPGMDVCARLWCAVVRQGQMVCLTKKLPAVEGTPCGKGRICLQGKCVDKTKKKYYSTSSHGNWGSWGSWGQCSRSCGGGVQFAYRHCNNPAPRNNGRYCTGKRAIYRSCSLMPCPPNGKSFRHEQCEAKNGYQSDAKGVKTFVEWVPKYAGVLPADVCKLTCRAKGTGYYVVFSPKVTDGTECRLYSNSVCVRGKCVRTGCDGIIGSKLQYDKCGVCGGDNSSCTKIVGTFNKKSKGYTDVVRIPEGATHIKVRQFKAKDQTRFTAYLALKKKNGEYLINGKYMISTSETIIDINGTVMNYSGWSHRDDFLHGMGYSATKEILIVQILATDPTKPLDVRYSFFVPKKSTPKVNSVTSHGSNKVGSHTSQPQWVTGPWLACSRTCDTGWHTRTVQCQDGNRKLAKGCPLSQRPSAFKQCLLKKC
assay-remarks: hADAMTS-5 TBIS-1 cleavage assay, Protocol 3
Assay type: biochemical
condition-label: 90 min at 37° C., read-out: hADAMTS-5 potency IC50
pIC50: −log10 of the molar value.
readout-name: pIC50

COc1cc(N2CCN(C(=O)CC[C@@]3(C)NC(=O)NC3=O)C[C@@H]2C)cc(OC)c1Cl [Cpd 110]    < 7.00
COc1cc(F)cc(N2CCN(C(=O)[C@@H](C)C[C@@]3(C4CC4)NC(=O)NC3=O)CC2)c1 [Cpd 26]    7.60 to 12.00
COc1cc(Cl)c(C)cc1N1CCN(C(=O)CCC2(C)NC(=O)NC2=O)CC1 (stereo not shown) [Cpd 58]    < 7.00

pIC50 recorded for this compound, COc1cc(N2CCN(C(=O)CCC3(C)NC(=O)NC3=O)C[C@@H]2C)c(C)cc1Cl (stereo partly shown) [Cpd 36] , is < 7.00

Measured pIC50 of COc1cc(N2CCN(C(=O)[C@@H](C)C[C@@]3(C)NC(=O)NC3=O)C[C@@H]2C)cc(F)c1Cl (stereo in doubt) [Cpd 120] : 7.60 to 12.00

Sample CCOc1cc(N2CCN(C(=O)CC[C@@]3(C)NC(=O)NC3=O)CC2)cc(OC)c1Cl [Cpd 79] ; pIC50 observed: < 7.00
